tested.system: CX3CR1 (Homo sapiens)
Sequence (P49238 whole entry, species assumed): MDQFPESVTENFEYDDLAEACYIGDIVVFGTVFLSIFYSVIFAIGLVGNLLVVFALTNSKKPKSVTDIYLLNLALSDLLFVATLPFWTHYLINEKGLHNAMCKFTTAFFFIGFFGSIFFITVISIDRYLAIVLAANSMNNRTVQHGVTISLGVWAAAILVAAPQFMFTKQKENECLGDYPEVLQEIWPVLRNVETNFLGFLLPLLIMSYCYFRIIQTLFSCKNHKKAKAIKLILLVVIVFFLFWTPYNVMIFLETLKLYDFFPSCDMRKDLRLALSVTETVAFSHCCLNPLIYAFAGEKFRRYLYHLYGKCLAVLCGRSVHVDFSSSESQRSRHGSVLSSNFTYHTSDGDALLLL
method.description: Inhibition of cell migration in fractalkine-induced chemotaxis assay
recorded.conditions: fractalkine-induced (0.3 nM) migration of CX3CR1-expressing B300 cells; preincubated with test compound for 30 minutes; Transwell, 3.5 hours at 37°C
pIC50: −log10 of the molar value.
reported.endpoint: pIC50

INSERT INTO assay_data (compound, reported_endpoint, measured_value) VALUES
  ('C[C@H]1CN(Cc2c(Cl)cccc2Cl)C[C@@]1(CC(=O)O)C(=O)N[C@H]1CCN(CC2=CCCCC2)C1', 'pIC50', 7.80);

(A) CCCC(F)CN1CCC(NC(=O)[C@]2(CC(=O)O)CN(Cc3c(Cl)cccc3C(F)(F)F)C[C@@H]2C)CC1 (stereo partly drawn)
(B) C[C@H]1CN(Cc2c(Cl)cccc2C(F)(F)F)C[C@@]1(CC(=O)O)C(=O)NC1CCN(CC2=CCCC2)CC1
Exam item: Kindly compare A with B and tell me which has the lower pIC50 figure. Answer by stating the label of the chosen item.
Marked response: A
